Origin of values: paper PMC11855086

Test system: A. baumannii (ATCC 17978)
assay protocol: MIC and MBC, microtiter plate technique
Type: cell-based
applied conditions: ATCC17978; Acinetobacter baumannii; TTC
I'd be grateful if you could share measured MBC for these entries.
Answers are plain numbers, in µM.

>>> measured_value("COc1ccc(CNC(=O)C(c2ccc(O)c(O)c2)N(C(=O)Cc2ccccc2)C2CCCCC2)cc1 (centres unmarked)")
0.75
>>> measured_value("CCCCN(C(=O)Cc1ccccc1)C(C(=O)NCc1ccc(OC)cc1)c1ccc(O)c(O)c1 (centres unmarked)")
0.75
>>> measured_value("O=C(NCc1ccccc1)C(c1ccc(O)c(O)c1)N(C(=O)Cc1ccccc1)C1CCCCC1 (centres unmarked)")
0.75
>>> measured_value("CCCCN(C(C)=O)C(C(=O)NCc1ccccc1)c1ccc(O)c(O)c1 (centres unmarked)")
0.9
>>> measured_value("O=C(NCc1ccc(F)cc1)C(c1ccc(O)c(O)c1)N(C(=O)Cc1ccccc1)C1CCCCC1 (centres unmarked)")
0.71
>>> measured_value("COc1ccc(CNC(=O)C(c2ccc(O)c(O)c2)N(Cc2ccc(OC)cc2)C(=O)Cc2ccccc2)cc1 (centres unmarked)")
0.9
>>> measured_value("COc1ccc(CNC(=O)C(c2ccc(O)c(O)c2)N(C(C)=O)C2CCCCC2)cc1 (centres unmarked)")
0.79

Next molecule, MBC to be filled in.
Please fill in: MBC reported for CC(=O)N(C1CCCCC1)C(C(=O)NCc1ccccc1)c1ccc(O)c(O)c1 (centres unmarked) = 0.88

====

Tested on: S. aureus (ATCC 23235)
assay protocol: microbe, parasite or virus in culture
Format: cell-based
applied conditions: Staphylococcus aureus, ATCC23235, 24 h
observed property: MIC (µM)
One number for each entry, in µM.

Consider the reported MIC for these molecules:
>>> measured_value("COc1ccc(CNC(=O)C(c2ccc(O)c(O)c2)N(Cc2ccc(OC)cc2)C(C)=O)cc1 (stereo not shown) [Compound 5k]")
1.18
>>> measured_value("COc1ccc(CNC(=O)C(c2ccc(O)c(O)c2)N(C(C)=O)C2CCCCC2)cc1 (stereo not shown) [Compound 5n]")
0.72

Fill in MIC for each of the 2 molecules listed.
1. CCCCN(C(=O)Cc1ccccc1)C(C(=O)NCc1ccccc1)c1ccc(O)c(O)c1 (stereo not shown) [Compound 5g]
2. O=C(NCc1ccc(F)cc1)C(c1ccc(O)c(O)c1)N(C(=O)Cc1ccccc1)C1CCCCC1 (stereo not shown) [Compound 5f]

[0.73, 0.68]

Fill in MIC for each of the 8 molecules listed.
1. CCCCN(C(C)=O)C(C(=O)NCc1ccccc1)c1ccc(O)c(O)c1 (stereo not shown) [Compound 5p]
2. COc1ccc(CNC(=O)C(c2ccc(O)c(O)c2)N(Cc2ccc(OC)cc2)C(=O)Cc2ccccc2)cc1 (stereo not shown) [Compound 5b]
3. COc1ccc(CN(C(C)=O)C(C(=O)NCc2ccc(F)cc2)c2ccc(O)c(O)c2)cc1 (stereo not shown) [Compound 5l]
4. CCCCN(C(C)=O)C(C(=O)NCc1ccc(F)cc1)c1ccc(O)c(O)c1 (stereo not shown) [Compound 5r]
5. CCCCN(C(=O)Cc1ccccc1)C(C(=O)NCc1ccc(OC)cc1)c1ccc(O)c(O)c1 (stereo not shown) [Compound 5h]
6. COc1ccc(CNC(=O)C(c2ccc(O)c(O)c2)N(C(=O)Cc2ccccc2)C2CCCCC2)cc1 (stereo not shown) [Compound 5e]
7. COc1ccc(CN(C(=O)Cc2ccccc2)C(C(=O)NCc2ccc(F)cc2)c2ccc(O)c(O)c2)cc1 (stereo not shown) [Compound 5c]
8. O=Cc1ccc(O)c(O)c1 [Compound 1, 3,4-dihydroxybenzaldehyde, reference compound]

0.87
0.9
1.27
1.51
0.67
0.67
0.96
2.67

Fill in MIC for each of the 4 molecules listed.
1. CCCCN(C(=O)Cc1ccccc1)C(C(=O)NCc1ccc(F)cc1)c1ccc(O)c(O)c1 (stereo not shown) [Compound 5i]
2. CC(=O)N(C1CCCCC1)C(C(=O)NCc1ccc(F)cc1)c1ccc(O)c(O)c1 (stereo not shown) [Compound 5o]
3. COc1ccc(CN(C(=O)Cc2ccccc2)C(C(=O)NCc2ccccc2)c2ccc(O)c(O)c2)cc1 (stereo not shown) [Compound 5a]
4. CC(=O)N(C1CCCCC1)C(C(=O)NCc1ccccc1)c1ccc(O)c(O)c1 (stereo not shown) [Compound 5m]

[0.99, 0.74, 0.65, 0.75]
